Please go through the items and note down their T/C.
System: L1210
PROCEDURE_TEXT: Antitumor activity against mouse L1210 cells allografted in mouse assessed as tumor inhibition at 4 mg/kg, ip qd for 8 days relative to control
Format: functional
ASSAY_CONDITIONS: route intraperitoneal
One number for each entry, in %.

Example entries begin here.
O=NN(CCCl)C(=O)NCCCl : 193
O=NN(CCCl)C(=O)N[C@H]1[C@H](O)[C@@H](O)[C@@H](O)[C@@H]1O : 229
O=NN(CCCl)C(=O)N[C@H]1[C@H](O)[C@H](O)[C@H](O)[C@@H]1O : 250

Next molecule, T/C to be filled in.
### Prompt Quick check: T/C on L1210, item O=NN(CCCl)C(=O)N[C@H]1[C@H](O)[C@H](O)[C@@H](O)[C@@H]1O ?
### Response 207

* * *

System: L1210
PROCEDURE_TEXT: Antitumor activity against mouse L1210 cells allografted in mouse assessed as tumor inhibition at 0.5 mg/kg, ip qd for 8 days relative to control
Type: functional
ASSAY_CONDITIONS: route intraperitoneal
EXPERIMENTAL_ENDPOINT: T/C (%)
Give bare numbers, in %.

Example entries begin here.
O=NN(CCCl)C(=O)N[C@H]1[C@H](O)[C@@H](O)[C@@H](O)[C@@H]1O : 107
O=NN(CCCl)C(=O)N[C@H]1[C@H](O)[C@H](O)[C@H](O)[C@@H]1O : 114
O=NN(CCCl)C(=O)NCCCl [CARMUSTINE] : 100

Next compound, T/C to be filled in.
### Prompt What value of T/C has been reported for the following compound? O=NN(CCCl)C(=O)N[C@H]1[C@H](O)[C@H](O)[C@@H](O)[C@@H]1O
### Response 114

* * *

Test system: L1210
PROCEDURE_TEXT: Antitumor activity against mouse L1210 cells allografted in mouse assessed as tumor inhibition at 2 mg/kg, ip qd for 8 days relative to control
Type: functional
ASSAY_CONDITIONS: route intraperitoneal
Please go through the items and note down their T/C.
Numbers only, in %.

Example entries begin here.
O=NN(CCCl)C(=O)N[C@H]1[C@H](O)[C@@H](O)[C@@H](O)[C@@H]1O : 171
O=NN(CCCl)C(=O)NCCCl : 114
O=NN(CCCl)C(=O)N[C@H]1[C@H](O)[C@H](O)[C@H](O)[C@@H]1O : 143

Next compound, T/C to be filled in.
### Prompt What value of T/C has been reported for the following compound? O=NN(CCCl)C(=O)N[C@H]1[C@H](O)[C@H](O)[C@@H](O)[C@@H]1O
### Response 221

* * *

System: L1210
PROCEDURE_TEXT: Antitumor activity against mouse L1210 cells allografted in mouse assessed as tumor inhibition at 8 mg/kg, ip qd for 8 days relative to control
Assay type: functional
ASSAY_CONDITIONS: route intraperitoneal
EXPERIMENTAL_ENDPOINT: T/C (%)
Answers are plain numbers, in %.

Example entries begin here.
O=NN(CCCl)C(=O)N[C@H]1[C@H](O)[C@H](O)[C@@H](O)[C@@H]1O : 243
O=NN(CCCl)C(=O)NCCCl : 293

Next compound, T/C to be filled in.
### Prompt Quick check: T/C on L1210, item O=NN(CCCl)C(=O)N[C@H]1[C@H](O)[C@@H](O)[C@@H](O)[C@@H]1O ?
### Response 336

Attribution: ChEMBL document CHEMBL3227968
